Origin of values: patent US4366158A

assay: Toxicity Test; conditions: rat, in vivo, po
RECORDED METRIC: LD50 at 168 h (mg/kg)

# MOLECULE, UNIT STRING, NUMERIC READOUT
rows = [
    ("CC(=O)Nc1ccc(O)cc1 [Acetaminophen]", "mg/kg", 2000),
]

---

test: Toxicity Test; details: rat, in vivo, po, male rats, 4 hour observation; read-out: No symptom dose

# CHEMICAL STRUCTURE, NOAEL at 4 h / mg/kg
records = [
    ("CC(=O)Oc1ccccc1C(=O)O", 10),
]

---

assay: solubility of the base; format: physicochemical; conditions: in water

# CHEMICAL STRUCTURE, solubility
records = [
    ("O=C1CCCN1c1cccc2cccnc12", "> 50 mg/mL"),
]

---

test: Toxicity Test; conditions: rat, in vivo, po, male rats, 7 day observation, method of Miller and Tainter; read-out: LD50
As shown below, each of these molecules has a reported LD50 at 168 h value.

# CHEMICAL STRUCTURE, LD50 at 168 h / mg/kg
rows = [
    ("O=C1CCCN1c1cccc2cccnc12", 1650),
    ("CC(=O)Oc1ccccc1C(=O)O", 1610),
]

---

experiment: solubility of the base; assay type: physicochemical; conditions: in 0.1 N HCl
RECORDED METRIC: solubility

# CHEMICAL STRUCTURE, RECORDED METRIC, RESULT
rows = [
    ("O=C1CCCN1c1cccc2cccnc12", "solubility", "> 50 mg/mL"),
]
